# Tested on: U-251
# Assay Protocol: Antiproliferative activity against human U251 cells assessed as concentration required for total cell growth inhibition after 48 hrs by SRB assay
# Format: functional
# Assay Setup: U-251, 48 h
Value Type: TGI (µM)

INSERT INTO results (compound, readout_number) VALUES
  ('COc1cccc(/C=C/C2(C)C=CC(=O)O2)c1 (stereo unspecified)', 37.6),
  ('CC1(/C=C/c2ccccc2C(F)(F)F)C=CC(=O)O1 (stereo unspecified)', 14.1),
  ('COc1cc(/C=C/C2(C)C=CC(=O)O2)cc(OC)c1OC (stereo unspecified)', 125),
  ('COc1ccc(/C=C/C2(C)C=CC(=O)O2)c(OC)c1 (stereo unspecified)', 62.8),
  ('CC1(/C=C/c2ccc(O)cc2)C=CC(=O)O1 (stereo unspecified)', 107),
  ('C[C@]1(/C=C/c2ccccc2)CC=CC(=O)O1', 27.5);
